Target: Aldo-keto reductase family 1 member C3 (Homo sapiens, UniProt P42330)
Sequence (P42330 whole entry): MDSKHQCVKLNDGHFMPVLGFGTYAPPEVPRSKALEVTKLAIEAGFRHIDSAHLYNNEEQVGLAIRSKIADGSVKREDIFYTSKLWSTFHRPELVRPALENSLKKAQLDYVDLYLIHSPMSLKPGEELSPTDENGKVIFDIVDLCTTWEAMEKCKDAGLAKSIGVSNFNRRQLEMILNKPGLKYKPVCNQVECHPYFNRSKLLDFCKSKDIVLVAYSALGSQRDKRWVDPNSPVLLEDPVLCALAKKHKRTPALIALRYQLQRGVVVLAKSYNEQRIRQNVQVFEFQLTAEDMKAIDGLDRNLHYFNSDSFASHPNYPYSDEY
Experiment: Inhibition of human recombinant AKR1C3 expressed in Escherichia coli JM109 cells using S-tetralol as substrate by fluorometry
pIC50: −log10 of the molar value.
measured-quantity: pIC50

P = CC(C)=CCc1cc(/C=C/C(=O)O)cc(CC=C(C)C)c1O [ARTEPILLIN]
Q = O=C(/C=C/c1ccc(O)c(O)c1)OCCc1ccccc1
Request: Among P and Q , whose measured pIC50 is the smaller figure? The response must carry the label of the picked entry.
Response: Q

====

Target: UniProt:P52895
Sequence (P52895 whole entry): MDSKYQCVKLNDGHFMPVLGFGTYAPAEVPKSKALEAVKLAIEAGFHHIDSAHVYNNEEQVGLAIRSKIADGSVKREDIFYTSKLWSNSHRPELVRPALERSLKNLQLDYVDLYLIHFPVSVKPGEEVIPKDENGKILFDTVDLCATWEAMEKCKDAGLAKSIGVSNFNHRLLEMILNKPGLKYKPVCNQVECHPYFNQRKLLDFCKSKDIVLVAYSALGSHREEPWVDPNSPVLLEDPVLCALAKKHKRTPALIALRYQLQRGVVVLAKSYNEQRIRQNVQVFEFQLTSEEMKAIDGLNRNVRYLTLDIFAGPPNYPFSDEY
Experiment: Inhibition of human recombinant AKR1C2 expressed in Escherichia coli using S-tetralol as substrate by fluorometry
pIC50: −log10 of the molar value.
measured-quantity: pIC50

a = COc1ccc2c(c1)c(CC(=O)O)c(C)n2C(=O)c1ccc(Cl)cc1
b = O=C(/C=C/c1ccc(O)c(O)c1)OCCc1ccccc1
Request: Of the two listed items, which has the higher pIC50? First: a Second: b Answer by stating the label of the chosen item.
Response: b
(b: 5.22, a: 4.12)

====

Molecular target: Aldo-keto reductase family 1 member C3 (Homo sapiens)
Assay: Competitive inhibition of human recombinant AKR1C3 expressed in Escherichia coli JM109 cells using S-tetralol as substrate by fluorometry
measured-quantity: Ki (nM)
State the answer as a number, implicitly in nM.

Looking up CC(C)=CCc1cc(/C=C/C(=O)O)cc(CC=C(C)C)c1O [ARTEPILLIN] , I found its Ki recorded as 680

====

Target: Aldo-keto reductase family 1 member C3 (Homo sapiens, UniProt P42330)
Experiment: Noncompetitive inhibition of human recombinant AKR1C3 expressed in Escherichia coli JM109 cells using S-tetralol as substrate by fluorometry in presence of NADP+
measured-quantity: Ki (nM)
Unit nM implied. Number only.

Entry under test: CC(C)=CCc1cc(/C=C/C(=O)O)cc(CC=C(C)C)c1O [ARTEPILLIN] . Its Ki was 680

====

Target: Aldo-keto reductase family 1 member C3 (Homo sapiens)
Experiment: Inhibition of human AKR1C3 using S-(+)-1,2,3,4-tetrahydro-1-naphthol as substrate
measured-quantity: Ki (nM)
Provide only the numeric value, understood in nM.

# Ki (compound: Cc1c(Cl)cccc1Nc1ccccc1C(=O)O ) is 8

====

Target: Aldo-keto reductase family 1 member C4 (Homo sapiens)
Sequence (P17516 whole entry): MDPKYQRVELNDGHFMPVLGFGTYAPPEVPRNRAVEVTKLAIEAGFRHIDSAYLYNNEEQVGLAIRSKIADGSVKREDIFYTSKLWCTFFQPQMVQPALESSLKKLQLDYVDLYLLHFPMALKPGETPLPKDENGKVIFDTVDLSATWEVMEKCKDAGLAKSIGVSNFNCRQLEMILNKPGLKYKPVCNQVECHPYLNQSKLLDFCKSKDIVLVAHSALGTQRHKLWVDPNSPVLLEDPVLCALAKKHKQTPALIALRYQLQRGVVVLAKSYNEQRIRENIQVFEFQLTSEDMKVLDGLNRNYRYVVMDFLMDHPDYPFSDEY
Assay: Inhibition of human recombinant GST-tagged AKR1C4 expressed in Escherichia coli using S-tetralol as substrate by fluorometry
measured-quantity: IC50 (µM)

1 = O=C(/C=C/c1ccc(O)c(O)c1)OCCc1ccccc1 [CAFFEIC ACID PHENETHYL ESTER]
2 = COc1ccc2c(c1)c(CC(=O)O)c(C)n2C(=O)c1ccc(Cl)cc1 [INDOMETHACIN]
Request: Smaller IC50 value, 1 vs 2 ? Lab log: write the label of the selected item as the result.
Response: 1
(1: 2.3 µM, 2: 54 µM)
